Source of measurements: ChEMBL document CHEMBL3217610

# Study system: Gamma-secretase (Homo sapiens) (UniProt Q96BI3+Q9NZ42+Q8WW43+P49768+Q92542+P49810)
# Method notes: Selectivity ratio of IC50 for modulation of gamma-secretase (unknown origin) assessed as inhibition of amyloid beta 40 production to IC50 for modulation of gamma-secretase (unknown origin) assessed as inhibition of amyloid beta 42 production
# Format: protein-complex assay
Measured property: Ratio IC50

Problem: So what's the measured Ratio IC50 for this one? `CC(=O)O[C@@H]([C@@H]1C[C@@H](C)[C@H]2[C@H](O1)[C@H](O)[C@@]1(C)[C@@H]3CC[C@H]4C(C)(C)[C@@H](OC(=O)NC5CNC5)CC[C@@]45C[C@@]35CC[C@]21C)C(C)(C)O`
Result: 7

Problem: So what's the measured Ratio IC50 for this one? `CC(=O)O[C@@H]([C@@H]1C[C@@H](C)[C@H]2[C@H](O1)[C@H](O)[C@@]1(C)[C@@H]3CC[C@H]4C(C)(C)[C@@H](OC(=O)NCCN5CCOCC5)CC[C@@]45C[C@@]35CC[C@]21C)C(C)(C)O`
Result: > 86

Problem: So what's the measured Ratio IC50 for this one? `CC(=O)O[C@@H]([C@@H]1C[C@@H](C)[C@H]2[C@H](O1)[C@H](O)[C@@]1(C)[C@@H]3CC[C@H]4C(C)(C)[C@@H](OC(=O)[C@@H]5CCCN5)CC[C@@]45C[C@@]35CC[C@]21C)C(C)(C)O`
Result: 20

Problem: So what's the measured Ratio IC50 for this one? `CC(=O)O[C@@H]([C@@H]1C[C@@H](C)[C@H]2[C@H](O1)[C@H](O)[C@@]1(C)[C@@H]3CC[C@H]4C(C)(C)[C@@H](OC(N)=O)CC[C@@]45C[C@@]35CC[C@]21C)C(C)(C)O`
Result: > 100
